Numbers sourced from ChEMBL document CHEMBL4118122.

- TARGET_ENTITY: Nuclear receptor ROR-gamma (Homo sapiens, UniProt P51449)
- Sequence (P51449 whole entry): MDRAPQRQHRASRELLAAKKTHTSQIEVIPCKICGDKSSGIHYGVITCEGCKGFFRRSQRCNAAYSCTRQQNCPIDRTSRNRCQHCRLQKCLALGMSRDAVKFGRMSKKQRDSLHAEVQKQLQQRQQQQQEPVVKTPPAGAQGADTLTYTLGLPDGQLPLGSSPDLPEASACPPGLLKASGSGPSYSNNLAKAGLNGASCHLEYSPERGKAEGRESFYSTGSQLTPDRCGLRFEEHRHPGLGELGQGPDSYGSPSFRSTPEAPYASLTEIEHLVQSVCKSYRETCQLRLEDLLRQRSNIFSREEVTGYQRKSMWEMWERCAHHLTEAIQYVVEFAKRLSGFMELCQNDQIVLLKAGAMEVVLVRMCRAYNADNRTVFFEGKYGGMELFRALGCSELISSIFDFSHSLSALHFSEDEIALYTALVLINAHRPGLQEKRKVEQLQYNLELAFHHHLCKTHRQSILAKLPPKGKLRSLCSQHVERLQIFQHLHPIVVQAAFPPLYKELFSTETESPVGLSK
- PROTOCOL_TEXT: Inverse agonist activity at RORgammat in human CD4 positive T cells assessed as inhibition of IL17A production in human Th17 cells after 1 hr
- Format: cell-based
ASSAY_ENDPOINT: EC50 (nM)

# SMILES_DATA, RECORDED_RESULT
rows = [
    ("CC(C)(C)NS(=O)(=O)c1ccc(-c2sc(C(=O)N[C@H]3C[C@H](C(=O)O)C3)nc2CC2CCCCC2)c2ccccc12", 2.8),
]

====

- TARGET_ENTITY: Neurotensin receptor type 1 (Homo sapiens)
- Sequence (P30989 whole entry): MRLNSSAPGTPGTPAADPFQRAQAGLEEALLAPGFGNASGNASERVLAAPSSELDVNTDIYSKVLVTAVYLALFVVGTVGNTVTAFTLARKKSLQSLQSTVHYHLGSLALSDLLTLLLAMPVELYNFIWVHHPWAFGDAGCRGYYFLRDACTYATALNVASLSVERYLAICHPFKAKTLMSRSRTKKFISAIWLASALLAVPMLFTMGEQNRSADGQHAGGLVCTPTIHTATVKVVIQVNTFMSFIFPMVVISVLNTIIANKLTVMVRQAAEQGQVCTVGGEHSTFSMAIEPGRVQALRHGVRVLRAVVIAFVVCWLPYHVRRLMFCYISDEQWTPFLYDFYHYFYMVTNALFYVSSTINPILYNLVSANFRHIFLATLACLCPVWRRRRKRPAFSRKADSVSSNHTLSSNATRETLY
- PROTOCOL_TEXT: Displacement of [125I]Tyr3-neurotensin from human recombinant NTS1 receptor after 120 mins by scintillation counting analysis

# SMILES_DATA, IC50 [pM]
records = [
    ("CC(C)(C)NS(=O)(=O)c1ccc(-c2sc(C(=O)N[C@H]3C[C@H](C(=O)O)C3)nc2CC2CCCCC2)c2ccccc12", 250),
]

====

The molecules listed here are annotated with their INH.
- TARGET_ENTITY: Cytochrome P450 3A4 (Homo sapiens)
- Sequence (P08684 whole entry): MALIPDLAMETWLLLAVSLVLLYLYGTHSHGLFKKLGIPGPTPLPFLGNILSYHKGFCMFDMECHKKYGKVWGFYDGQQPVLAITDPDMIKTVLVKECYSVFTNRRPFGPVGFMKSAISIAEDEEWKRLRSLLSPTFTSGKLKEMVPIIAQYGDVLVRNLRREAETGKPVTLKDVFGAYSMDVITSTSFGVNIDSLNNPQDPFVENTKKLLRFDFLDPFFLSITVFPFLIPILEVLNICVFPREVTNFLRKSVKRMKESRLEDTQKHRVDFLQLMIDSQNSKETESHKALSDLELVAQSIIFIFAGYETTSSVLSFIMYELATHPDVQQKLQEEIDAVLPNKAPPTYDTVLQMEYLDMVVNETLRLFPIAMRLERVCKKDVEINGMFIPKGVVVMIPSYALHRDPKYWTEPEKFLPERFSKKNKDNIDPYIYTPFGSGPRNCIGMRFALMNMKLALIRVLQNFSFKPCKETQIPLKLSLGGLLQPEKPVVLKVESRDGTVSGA
- PROTOCOL_TEXT: Inhibition of CYP3A4 (unknown origin)
- Assay type: ADME

# SMILES_DATA, INH
records = [
    ("C[C@H](NS(=O)(=O)c1ccc(-c2sc(C(=O)NCC(C)(C)O)nc2CC2CC2)c2ccccc12)C(F)(F)F", "> 10 µM"),
    ("CC(C)NS(=O)(=O)c1ccc(-c2sc(C(=O)N[C@H]3C[C@H](C(=O)O)C3)nc2CC2CCCCC2)c(C(F)F)c1Cl", "> 10 µM"),
    ("C[C@H](NS(=O)(=O)c1ccc(-c2sc(C(=O)NC3CCS(=O)(=O)CC3)nc2CC2CC2)c2ccccc12)C(F)(F)F", "> 10 µM"),
]

====

- PROTOCOL_TEXT: Tmax in Sprague-Dawley rat at 5 mg/kg, po
- Format: ADME, organism-based
- MEASUREMENT_PARAMETERS: in vivo
Tmax values for the compounds below.
ASSAY_ENDPOINT: Tmax

# SMILES_DATA, ASSAY_ENDPOINT, RECORDED_RESULT
records = [
    ("C[C@H](NS(=O)(=O)c1ccc(-c2sc(C(=O)NCC(C)(C)O)nc2CC2CCC2)c(C(F)F)c1)C(F)(F)F", "Tmax", "102 min"),
    ("C[C@H](NS(=O)(=O)c1ccc(-c2sc(C(=O)NCC(C)(C)O)nc2CC2CC2)c2ccccc12)C(F)(F)F", "Tmax", "48 min"),
    ("CC(C)(C)NS(=O)(=O)c1ccc(-c2sc(C(=O)N[C@H]3C[C@H](C(=O)O)C3)nc2CC2CCCCC2)c2ccccc12", "Tmax", "48 min"),
    ("C[C@H](NS(=O)(=O)c1ccc(-c2sc(C(=O)NC3CCS(=O)(=O)CC3)nc2CC2CC2)c2ccccc12)C(F)(F)F", "Tmax", "102 min"),
    ("CC(C)(C)NS(=O)(=O)c1ccc(-c2sc(C(=O)N[C@H]3C[C@H](C(=O)O)C3)nc2CC2CCCCC2)c(Cl)c1", "Tmax", "48 min"),
]

====

solubility thermodynamic at 10000 µM listing for selected compounds.
- PROTOCOL_TEXT: Thermodynamic solubility of the compound in 30 mM phosphate buffer at 10 mM at pH 7 after 2 to 5 days by UV-HPLC analysis
- Assay type: physicochemical
- MEASUREMENT_PARAMETERS: read-out: Therm_solubility

# SMILES_DATA, COMPARATOR, solubility thermodynamic at 10000 µM / µM
measured = [
    ("Cc1c(S(=O)(=O)NC(C)(C)C)ccc(-c2sc(C(=O)N[C@H]3C[C@H](C(=O)O)C3)nc2CC2CCCCC2)c1OC(F)F", "<", 1),
    ("CC(C)NS(=O)(=O)c1ccc(-c2sc(C(=O)N[C@H]3C[C@H](C(=O)O)C3)nc2CC2CCCCC2)c(C(F)F)c1Cl", "=", 11),
    ("C[C@H](NC(=O)c1cc(-c2sc(C(=O)N[C@H]3C[C@H](C(=O)O)C3)nc2CC2CCCCC2)cc(C2(C)CC2)c1)C(F)(F)F", "=", 17),
    ("CC(C)(C)NS(=O)(=O)c1ccc(-c2sc(C(=O)N3CC4(C3)CS(=O)(=O)C4)nc2CC2CCCCC2)c(Cl)c1Cl", "<", 1),
]

====

- PROTOCOL_TEXT: Half life in human microsomes
- Format: ADME, Microsome
Recorded half-life split into classes low range (below 20 min), mid range (20 min to below 80 min), high range (80 min or more)

# SMILES_DATA, CLASS_ASSIGNMENT
records = [
    ("CC(C)NS(=O)(=O)c1ccc(-c2sc(C(=O)N[C@H]3C[C@H](C(=O)O)C3)nc2CC2CCCCC2)c(C(F)F)c1Cl", "high range"),
    ("CC(C)(C)NS(=O)(=O)c1ccc(-c2sc(C(=O)N[C@H]3C[C@H](C(=O)O)C3)nc2CC2CCCCC2)c2c1CCCC2", "low range"),
    ("C[C@H](NS(=O)(=O)c1ccc(-c2sc(C(=O)NCC(C)(C)O)nc2COC(C)(C)C)c(Cl)c1Cl)C(F)(F)F", "high range"),
    ("C[C@H](NC(=O)c1cc(-c2sc(C(=O)N[C@H]3C[C@H](C(=O)O)C3)nc2CC2CCCCC2)cc(C2(C)CC2)c1)C(F)(F)F", "high range"),
    ("C[C@H](NS(=O)(=O)c1ccc(-c2sc(C(=O)NC3CCS(=O)(=O)CC3)nc2CC2CC2)c2ccccc12)C(F)(F)F", "high range"),
    ("CC(C)(C)NS(=O)(=O)c1ccc(-c2sc(C(=O)NCCN3CCOCC3)nc2CC2CCCCC2)c2ccccc12", "low range"),
    ("CC(C)(O)CNC(=O)c1nc(CC2CCCCC2)c(-c2cnc(S(=O)(=O)NC(C)(C)C)c3ccccc23)s1", "mid range"),
    ("C[C@H](NS(=O)(=O)c1ccc(-c2sc(C(=O)NCC(C)(C)O)nc2CC2CC2)c2ccccc12)C(F)(F)F", "high range"),
    ("CC(C)(O)CNC(=O)c1nc(CC2CCCCC2)c(-c2ccc(S(=O)(=O)NC3(C#N)CC3)c3ccccc23)s1", "mid range"),
    ("CC(C)(O)CNC(=O)c1nc(CC2CCCCC2)c(-c2ccc(S(=O)(=O)NC(C)(C)C)c(Cl)c2C(F)F)s1", "low range"),
    ("CCC(C)(C)NS(=O)(=O)c1ccc(-c2sc(C(=O)N[C@H]3C[C@H](C(=O)O)C3)nc2CC2CCCCC2)c(Cl)c1C", "mid range"),
    ("CC(C)(C)NS(=O)(=O)c1ccc(-c2sc(C(=O)N3CC4(C3)CS(=O)(=O)C4)nc2CC2CCCCC2)c(Cl)c1Cl", "low range"),
    ("C[C@H](NS(=O)(=O)c1ccc(-c2sc(C(=O)NCC(C)(C)O)nc2CC2CCC2)c(C(F)F)c1)C(F)(F)F", "high range"),
    ("Cc1c(S(=O)(=O)NC(C)(C)C)ccc(-c2sc(C(=O)N[C@H]3C[C@H](C(=O)O)C3)nc2CC2CCCCC2)c1OC(F)F", "mid range"),
    ("CC(C)(C)NS(=O)(=O)c1ccc(-c2sc(C(=O)N[C@H]3C[C@H](C(=O)O)C3)nc2CC2CCCCC2)c2ccccc12", "mid range"),
    ("CC(C)(C)NS(=O)(=O)c1ccc(-c2sc(C(=O)N[C@H]3C[C@H](C(=O)O)C3)nc2CC2CCCCC2)c(Cl)c1", "high range"),
    ("CC(C)(C)NS(=O)(=O)c1ccc(-c2sc(C(=O)N[C@H]3C[C@H](C(=O)O)C3)nc2CC2CCCCC2)c(C(F)(F)F)c1", "high range"),
    ("CC(C)(C)NS(=O)(=O)c1ncc(-c2sc(C(=O)N[C@H]3C[C@H](C(=O)O)C3)nc2CC2CCCCC2)c2ccccc12", "mid range"),
]

====

- TARGET_ENTITY: Cytochrome P450 2C9 (Homo sapiens)
- Sequence (P11712 whole entry): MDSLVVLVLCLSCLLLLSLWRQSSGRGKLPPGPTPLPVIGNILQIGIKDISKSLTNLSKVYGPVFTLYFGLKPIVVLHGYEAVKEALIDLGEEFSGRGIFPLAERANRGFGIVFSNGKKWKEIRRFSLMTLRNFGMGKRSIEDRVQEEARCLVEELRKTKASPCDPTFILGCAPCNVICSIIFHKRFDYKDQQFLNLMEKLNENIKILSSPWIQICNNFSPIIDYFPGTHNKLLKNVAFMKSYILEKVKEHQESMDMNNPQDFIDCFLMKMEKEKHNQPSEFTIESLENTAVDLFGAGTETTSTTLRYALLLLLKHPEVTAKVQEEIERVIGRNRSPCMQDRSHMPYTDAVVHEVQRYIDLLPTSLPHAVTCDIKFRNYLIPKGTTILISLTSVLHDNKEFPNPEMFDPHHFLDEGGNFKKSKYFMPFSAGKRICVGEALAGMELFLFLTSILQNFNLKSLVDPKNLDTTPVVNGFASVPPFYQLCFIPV
- PROTOCOL_TEXT: Inhibition of CYP2C9 (unknown origin)
- Assay type: ADME
ASSAY_ENDPOINT: log10(INH) (log10 of the value in µM)

# SMILES_DATA, log10(INH)
measured = [
    ("CC(C)(O)CNC(=O)c1nc(CC2CCCCC2)c(-c2cnc(S(=O)(=O)NC(C)(C)C)c3ccccc23)s1", 0.04),
    ("CC(C)(C)NS(=O)(=O)c1ccc(-c2sc(C(=O)N3CC4(C3)CS(=O)(=O)C4)nc2CC2CCCCC2)c(Cl)c1Cl", 0.20),
    ("Cc1c(S(=O)(=O)NC(C)(C)C)ccc(-c2sc(C(=O)N[C@H]3C[C@H](C(=O)O)C3)nc2CC2CCCCC2)c1OC(F)F", 0.94),
    ("C[C@H](NS(=O)(=O)c1ccc(-c2sc(C(=O)NCC(C)(C)O)nc2COC(C)(C)C)c(Cl)c1Cl)C(F)(F)F", 0.23),
    ("CC(C)(O)CNC(=O)c1nc(CC2CCCCC2)c(-c2ccc(S(=O)(=O)NC3(C#N)CC3)c3ccccc23)s1", -0.15),
    ("C[C@H](NS(=O)(=O)c1ccc(-c2sc(C(=O)NCC(C)(C)O)nc2CC2CCC2)c(C(F)F)c1)C(F)(F)F", 0.43),
]
